B1: library; numbered along this chain (parent)
chain: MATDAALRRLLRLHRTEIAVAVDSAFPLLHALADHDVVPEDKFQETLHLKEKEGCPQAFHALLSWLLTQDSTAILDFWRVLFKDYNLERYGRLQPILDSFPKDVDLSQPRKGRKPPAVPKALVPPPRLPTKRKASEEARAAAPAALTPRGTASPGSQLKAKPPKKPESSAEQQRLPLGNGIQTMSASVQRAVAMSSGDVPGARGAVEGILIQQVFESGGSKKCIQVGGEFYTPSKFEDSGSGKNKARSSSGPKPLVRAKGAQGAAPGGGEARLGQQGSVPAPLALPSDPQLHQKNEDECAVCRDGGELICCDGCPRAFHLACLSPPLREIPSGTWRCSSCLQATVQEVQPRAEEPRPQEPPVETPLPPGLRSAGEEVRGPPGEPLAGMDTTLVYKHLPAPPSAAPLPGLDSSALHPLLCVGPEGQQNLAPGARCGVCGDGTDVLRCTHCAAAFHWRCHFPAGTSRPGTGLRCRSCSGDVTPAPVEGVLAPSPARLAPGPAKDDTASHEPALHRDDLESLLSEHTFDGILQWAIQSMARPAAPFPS

# Variants of: B1
# procedure-summary: AIRE transcriptional activation functional score (insulin promoter-GFP; nonsense median 0, synonymous median 1) (normalised score); higher = higher AIRE activity (more reporter activation)
# recorded-conditions: with insulin promoter-GFP reporter in HEK293
property-measured: AIRE transcriptional activation functional score
The response must contain the number and no unit.

The cases that follow already have their AIRE transcriptional activation functional score on record.
>  <variant-notation>
E17H

>  <val>
0.241

$$$$
>  <variant-notation>
H319G

>  <val>
1.28

$$$$
>  <variant-notation>
W455R

>  <val>
0.879

$$$$
>  <variant-notation>
M194V

>  <val>
1.31

$$$$
>  <variant-notation>
A193W

>  <val>
-1.35

$$$$

Noted for T232A : its AIRE transcriptional activation functional score reads 0.926

Noted for L87S : its AIRE transcriptional activation functional score reads 0.0056

Noted for L32Y : its AIRE transcriptional activation functional score reads 0.28

Noted for K161D : its AIRE transcriptional activation functional score reads 1.13

Noted for L385W : its AIRE transcriptional activation functional score reads 1.56

Noted for L397A : its AIRE transcriptional activation functional score reads 0.914

Noted for C302S : its AIRE transcriptional activation functional score reads 0.665

Noted for P367S : its AIRE transcriptional activation functional score reads 1.13

Noted for A386P : its AIRE transcriptional activation functional score reads 0.921

Noted for D36Y : its AIRE transcriptional activation functional score reads 0.501

Noted for P282Y : its AIRE transcriptional activation functional score reads 1.17

Noted for D198C : its AIRE transcriptional activation functional score reads 0.704
